System: T-47D breast
Test: NCI tumour cell line growth inhibition, 48 h
Residues, ends and D or L forms follow the SMILES beside them. *: point of attachment. Cbz = O=C(OCc1ccccc1)*

molecule	subject of test	result modifier	TGI (µM)
COC(=O)c1ccc2c(c1)sc1nc(-c3ccc(OC)cc3)cn12	T-47D breast	>	100
COc1cc2nc3cc([N+](=O)[O-])ccc3c(NCCNCC(C)O)c2cc1OC (configuration not stated)	T-47D breast	=	2.33
C=C1C(=O)O[C@H]2[C@H]1CC/C(CNC(=O)/C=C/c1ccccc1F)=C\CC[C@@]1(C)O[C@@H]21	T-47D breast	=	4.53
O=C1CS(=O)(=O)C(c2cccc(Oc3ccccc3)c2)N1C1CC1 (configuration not stated)	T-47D breast	>	100
CCCC[C@H]1C(=O)O[C@H](C)[C@H](NC(=O)c2cccc(NC=O)c2OC)C(=O)O[C@@H](C)[C@@H]1OC(=O)CC(C)C (tested in a mixture with another compound)	T-47D breast	=	44.5
O=C(CN=C(CN(c1ccccc1)c1ccccc1)Oc1ccc(Cl)cc1Cl)n1ccnc1	T-47D breast	>	100
C=CC(=O)Nc1cccc(Oc2nc(Nc3ccc(N4CCN(C)CC4)cc3OC)ncc2Cl)c1	T-47D breast	=	15.5
CN1CCN(Cc2nc3c(s2)CCc2sccc2-3)CC1	T-47D breast	>	100
COC(=O)[C@]12CSC[C@H]1C[C@H](c1cccc3ccccc13)N2	T-47D breast	>	100
O=S(=O)(NCCCNc1cc(-c2cn(-c3ccccc3)nc2-c2cccc(O)c2)ccn1)c1ccc(Br)cc1	T-47D breast	=	6.38
CCC12C=CCN3CCC4(c5cc(C(c6ccc(OC)cc6)C6Cc7ccccc7N6)c(OC)cc5N(C)C4C(O)(C(=O)OC)C1O)C32 (configuration not stated)	T-47D breast	=	9.98
Cn1c(=O)ccc2c(=O)c3ccccc3oc21	T-47D breast	>	100
O=C(NCCCN(CCCCN(CCCNC(=O)c1cc(S(=O)(=O)O)cc(O)c1O)C(=O)c1cc(S(=O)(=O)O)cc(O)c1O)C(=O)c1cc(S(=O)(=O)O)cc(O)c1O)c1cc(S(=O)(=O)O)cc(O)c1O	T-47D breast	>	100
CCCCCCCCCCCCCCCCN(CC)CC	T-47D breast	=	17
Cc1sc2c(c1C)C(c1ccc(Cl)cc1)=N[C@@H](CC(=O)NCCCN1CCN(C)CC1)c1nnc(C)n1-2	T-47D breast	>	100
CCOC(=O)C12CC(C)=C(C)CC1CCCc1ccccc12 (configuration not stated)	T-47D breast	=	55.5
CN(C)CCS(=O)(=O)Nc1cc(-c2ccc3ncc(C#N)c(Nc4ccc(F)c(Cl)c4)c3c2)cnc1Cl	T-47D breast	=	0.65
Cc1cccc(C)c1N=Nc1ccc(O)c(CN(C)C)c1	T-47D breast	=	79.3
COc1ccc2c(c1)CCCc1c-2nc2ccccc2c1N	T-47D breast	=	31.3
CN(C)c1ccccc1[CH2][Ga]([Cl])[CH2]c1ccccc1N(C)C	T-47D breast	=	3.78
C=C1C(=O)C2=CC1CCC(=O)C1(C)CCC(OC(C)=O)C(C)(C)C1CC2O (configuration not stated)	T-47D breast	=	21.8
Cc1cn(Cc2cn(CC3OC(n4cc(C)c(=O)[nH]c4=O)CC3O)nn2)c(=O)[nH]c1=O (configuration not stated)	T-47D breast	>	100
O=C1[C@@H](O)[C@@H]2CCCC[C@@]23CCCN13	T-47D breast	>	100
COC(=O)c1oc2c(C(=O)/C=C/c3ccc(OC)cc3)c(OCCN3CCOCC3)ccc2c1C	T-47D breast	=	6.83
CC1=N[C@@](C)(C2CC3C=CC2C3=O)COC1=O (some centres not stated)	T-47D breast	>	100
CC1(C)CCCCCCCCCC2CC2CCC(C)(C)C1=O (configuration not stated)	T-47D breast	=	47.1
CC(=O)Nc1cc2nc3n(c2cc1C)CCC3OC(C)=O (configuration not stated)	T-47D breast	>	100
Cc1ccc2c3c1[C@@H]1O[C@@H]1c1cccc(c1-3)[C@@H]1O[C@H]21	T-47D breast	=	20.9
CCOC(=O)c1cc(NS(=O)(=O)c2ccc(C)cc2)cc(C(=O)OCC)c1	T-47D breast	=	83.6
CC(=O)NC1COC(COC(=O)CCCCCCCCCCNC(=O)c2ccc([N+](=O)[O-])c3c(=O)c4ccccc4[nH]c23)C(O)C1OC(C)C(=O)NC(C(=O)NC(CCC(N)=O)C(=O)OCc1ccccc1)C(C)C (configuration not stated)	T-47D breast	=	13
CC(C)(C)c1cc(-c2nc3ccc(N4CCN(CCO)CC4)cc3[nH]2)cc(C(C)(C)C)c1O	T-47D breast	>	100
COc1cc(C2c3cc4c(cc3OC(NCCO)C2C)OCO4)cc(OC)c1O (configuration not stated)	T-47D breast	>	100
CC(=O)N[C@@H](Cc1ccc(OP(=O)(O)O)cc1)C(=O)N[C@H]1CCC(=O)N2CCC[C@@H](C(=O)NCc3ccccc3)N2C1=O	T-47D breast	>	25
CC(C)C[C@@H](C=O)NC(=O)[C@H](CC(C)C)NC(=O)[C@H](CC(C)C)NC(=O)OCc1ccccc1 (Cbz-Leu-Leu-Leu-aldehyde)	T-47D breast	=	0.598
Cc1ccsc1C(=S)Nc1ccc(Cl)c(/C=N/OC(C)C)c1	T-47D breast	>	100
CC/C=C\C[C@H](O)C/C=C1/C(=O)C=C[C@@H]1C/C=C\CCCCO	T-47D breast	=	11.1
CN1CC2=C(NC(=S)NC2c2ccccc2Cl)/C(=C/c2ccccc2Cl)C1 (configuration not stated)	T-47D breast	>	100
